Hey, just so you know, these numbers are from PubChem BioAssay AID1259240.

# TEST SUMMARY: modulation of TERT promoter-driven luciferase – cell-based, luciferase reporter, human, primary screen (AID 1259240)
# TEST PARAMETERS: A2780 TERT promoter luciferase reporter, 16 h; at 20 µM, fold versus average of vehicle-only wells
Values of fold change strictly less than -1 map to rule met, and values of at least -1 map to rule not met.

COMPOUND: NCCn1c(-c2cccnc2)n[nH]c1=S
CAT: rule met

COMPOUND: CN(Cc1ccccc1)C(=O)C1CCCN(S(=O)(=O)c2ccc3c(c2)oc(=O)n3C)C1 (stereo unspecified)
CAT: rule met

COMPOUND: COCCNc1cc(C)nc2c(-c3ccc(Cl)cc3)c(C)nn12
CAT: rule met

COMPOUND: Cc1noc(C(=O)N2CCN(c3ccccc3)CC2)c1Cl
CAT: rule met

COMPOUND: COc1cc(-c2nc3s/c(=C\c4ccccc4Br)c(=O)n3n2)cc(OC)c1OC
CAT: rule not met

COMPOUND: O=C(Nc1ccc(F)c(F)c1)C1CCCN1S(=O)(=O)c1cccc2nsnc12 (stereo unspecified)
CAT: rule met
